System: SH-SY5Y
Assay: Neuroprotective activity in human APP695-transfected SH-SY5Y cells assessed as decrease of malondialdehyde level after 16 hrs (reference value: 52 +/- 1.84 nmol/mg)
Type: functional
The threshold is inclusive: Activity of exactly 40 nmol/mg counts as class 1; values below receive class 0.

SMILES DATA: OB(O)/C=C/c1ccc(C(F)(F)F)cc1
CATEGORY LABEL: class 0
//
SMILES DATA: OB(O)c1ccc(C(F)(F)F)cc1
CATEGORY LABEL: class 1
//
SMILES DATA: COc1cc(/C=C/B(O)O)cc(OC)c1
CATEGORY LABEL: class 1
//
SMILES DATA: OB(O)/C=C/C1CCCCC1
CATEGORY LABEL: class 0

* * *

The entries below come with measured Activity values attached.
System: SH-SY5Y
Experiment: Neuroprotective activity in human APP695-transfected SH-SY5Y cells assessed as decrease of malondialdehyde level after 16 hrs (reference value: 52 +/- 1.84 nmol/mg)
Format: functional

MOLECULE: CC1(C)OB(/C=C/c2ccc(F)cc2F)OC1(C)C
UNIT SPEC: nmol/mg
Activity: 39.76

MOLECULE: CC1(C)OB(/C=C/c2ccccc2)OC1(C)C
UNIT SPEC: nmol/mg
Activity: 40.71

MOLECULE: OB(O)c1ccccc1 [PHENYLBORONIC ACID]
UNIT SPEC: nmol/mg
Activity: 40.75

src = ChEMBL document CHEMBL2311255
